measured-target: KPC-2 (Klebsiella pneumoniae)
Construct: made in house; host or cells: E. coli BL21(DE3)
Sequence (Q9F663 25-293, looked up): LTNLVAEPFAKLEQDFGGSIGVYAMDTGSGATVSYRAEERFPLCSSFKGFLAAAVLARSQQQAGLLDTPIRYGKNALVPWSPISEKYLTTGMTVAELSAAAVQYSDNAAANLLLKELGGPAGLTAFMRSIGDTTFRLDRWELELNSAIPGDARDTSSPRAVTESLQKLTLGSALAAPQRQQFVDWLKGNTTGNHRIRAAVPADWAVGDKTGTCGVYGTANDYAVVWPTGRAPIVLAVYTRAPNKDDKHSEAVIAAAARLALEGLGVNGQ
method: β-lactamase enzyme inhibition assay, KPC-2 (imipenem substrate)
Type: biochemical
recorded-conditions: Class A; imipenem substrate, 300 nm; read-out: KPC-2
property-label: IC50

| molecule | result |
| --- | --- |
| NCCn1cc(C(=O)N[C@H]2Cc3cccc(C(=O)O)c3OB2O)nn1 [Example 59] | < 100 nM |
| Nc1ccc(S(=O)(=O)NCc2cn(CC(=O)N[C@H]3Cc4cccc(C(=O)O)c4OB3O)nn2)cc1 [Example 70] | < 100 nM |
| NCc1cnn(CC(=O)N[C@H]2Cc3cccc(C(=O)O)c3OB2O)c1 [Example 68] | < 100 nM |
| NCc1nc(CC(=O)N[C@H]2Cc3cccc(C(=O)O)c3OB2O)cs1 [Example 19] | < 100 nM |
| N=C(N)NCc1cn(CC(=O)N[C@H]2Cc3cccc(C(=O)O)c3OB2O)nn1 [Example 3] | < 100 nM |
| O=C(Cn1nnc(CC(=O)N[C@H]2Cc3cccc(C(=O)O)c3OB2O)n1)N[C@H]1CCNC1 [Example 44] | < 100 nM |
| CNCCNC(=O)c1cn(CC(=O)N[C@H]2Cc3cccc(C(=O)O)c3OB2O)nn1 [Example 87] | < 100 nM |
| O=C(Cc1nnn[nH]1)N[C@H]1Cc2cccc(C(=O)O)c2OB1O [Example 40] | < 100 nM |
